# SYSTEM_UNDER_TEST: T1, full-length recombinant human PAD4 (human, UniProt Q9UM07 1-663)
# T1 construct: Full-length recombinant; also called peptidylarginine deiminase 4
# PROTOCOL_DESCRIPTION: ELISA, immobilized human PAD4
MEASUREMENT_KIND: O.D. 490/630 at 0.015625 µg/mL
Could you keep your reply to the number by itself?

[
  {
    "BINDER": "humanized anti-PAD4 antibody derived from G8, VH H4.32 / VL L4.29 (antibody, IgG1, V domains shown, IgG1 kappa; also called G8 H4.32/L4.29) VH: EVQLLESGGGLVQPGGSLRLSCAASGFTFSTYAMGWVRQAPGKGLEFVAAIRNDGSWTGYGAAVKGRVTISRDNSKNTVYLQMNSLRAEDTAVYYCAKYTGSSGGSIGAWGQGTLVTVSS VL: SYELTQPPSVSVSPGQTARITCSGGNRNYYYGWYQQKPGQAPVTVIYANDKRPSGIPERFSGSNSGSTTTLTISGVQAEDEADYYCGTADTGKYVFGGGTKLTVLG",
    "O.D. 490/630 at 0.015625 µg/mL": 1.69
  },
  {
    "BINDER": "humanized anti-PAD4 antibody derived from G8, VH H4.15 / VL L4.00 (antibody, human IgG1, kappa, V domains shown, IgG1 kappa; also called G8 H4.15/L4.00) VH: EVQLLESGGGLVQPGGSLRLSCAASGFTFSTYAMGWVRQAPGKGLEFVSAIRNDGSWTGYGAAVKGRFTISRDNSKNTVYLQMNSLRAEDTAVYYCAKYTGSSGGSIGAWGQGTLVTVSS VL: SYELTQPPSVSVSPGQTARITCSGGNRNYYYGWYQQKPGQAPVLVIYANDKRPSGIPERFSGSSSGTTVTLTISGVQAEDEADYYCGTADTGKYVFGGGTKLTVLG",
    "O.D. 490/630 at 0.015625 µg/mL": 1.11
  },
  {
    "BINDER": "humanized anti-PAD4 antibody derived from H7, VH H4.15 / VL L4.06 (antibody, IgG1, V domains shown, IgG1 kappa; also called H7 H4.15/L4.06) VH: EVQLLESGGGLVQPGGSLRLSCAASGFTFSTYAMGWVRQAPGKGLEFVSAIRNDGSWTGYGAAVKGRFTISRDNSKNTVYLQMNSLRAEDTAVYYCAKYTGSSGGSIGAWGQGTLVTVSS VL: SYELTQPPSVSVSPGQTARITCSGGSGRYYYGWYQQKPGQAPVTVIYSSTHRPSGIPERFSGSYSGNTTTLTISGVQAEDEADYYCGTADSSSYVFGGGTKLTVLG",
    "O.D. 490/630 at 0.015625 µg/mL": 1.68
  },
  {
    "BINDER": "humanized anti-PAD4 antibody derived from H7, VH H4.32 / VL L4.06 (antibody, IgG1, V domains shown, IgG1 kappa; also called H7 H4.32/L4.06) VH: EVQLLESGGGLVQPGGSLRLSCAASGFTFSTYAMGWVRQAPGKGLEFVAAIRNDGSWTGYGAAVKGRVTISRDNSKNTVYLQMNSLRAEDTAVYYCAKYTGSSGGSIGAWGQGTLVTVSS VL: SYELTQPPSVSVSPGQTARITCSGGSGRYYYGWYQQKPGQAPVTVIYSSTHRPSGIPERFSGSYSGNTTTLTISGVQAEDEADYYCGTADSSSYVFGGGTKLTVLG",
    "O.D. 490/630 at 0.015625 µg/mL": 1.64
  }
]

Shift focus to the following entry.
The value of O.D. 490/630 at 0.015625 µg/mL measured for the binder humanized anti-PAD4 antibody derived from G8, VH H4.32 / VL L4.17 (antibody, IgG1, V domains shown, IgG1 kappa; also called G8 H4.32/L4.17) VH: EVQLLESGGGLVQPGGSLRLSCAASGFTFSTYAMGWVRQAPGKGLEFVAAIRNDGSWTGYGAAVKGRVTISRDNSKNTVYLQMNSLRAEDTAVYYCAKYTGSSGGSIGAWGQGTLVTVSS VL: SYELTQPPSVSVSPGQTARITCSGGNRNYYYGWYQQKPGQAPVTVIYANDKRPSGIPERFSGSTSGNTTTLTISGVQAEDEADYYCGTADTGKYVFGGGTKLTVLG turned out to be 1.56
